Listed compounds paired with reported logP
METHOD NOTES: Partition coefficient (logP)
Format: physicochemical
CONDITION NOTES: octanol/water

{"columns": ["COMPOUND", "logP"],
 "data": [
  ["OCC1C[C@H](F)C(n2cnc3c(O)ncnc32)O1 (stereo partly drawn)", -1.19],
  ["Cc1cccc2c1OP(=O)(OC[C@@H]1C[C@@H](F)[C@H](n3cnc4c(N)ncnc43)O1)OC2 (stereo partly drawn)", 0.93],
  ["Cc1cccc2c1OP(=O)(OC[C@@H]1C[C@H](F)C(n3cnc4c(N)ncnc43)O1)OC2 (single isomer, unassigned)", 1.29]
]}

====

METHOD NOTES: Hydrolysis half life in phosphate buffer.
Type: ADME
Could you label it Met if measured half-life is 20 h or higher, and Not met otherwise?

{"columns": ["COMPOUND", "CLASS"],
 "data": [
  ["Cc1cccc2c1OP(=O)(OC[C@@H]1C[C@@H](F)[C@H](n3cnc4c(N)ncnc43)O1)OC2 (some centres not stated)", "Met"],
  ["Cc1cccc2c1OP(=O)(OCC1C[C@@H](F)C(n3cnc4c(O)ncnc43)O1)OC2 (some centres not stated)", "Met"],
  ["Cc1cccc2c1OP(=O)(OC[C@@H]1C[C@H](F)C(n3cnc4c(N)ncnc43)O1)OC2 (single isomer, unassigned)", "Met"],
  ["COc1ccc2c(c1)COP(=O)(OCC1C[C@H](F)C(n3cnc4c(N)ncnc43)O1)O2 (some centres not stated)", "Not met"],
  ["Nc1ncnc2c1ncn2C1OC(COP2(=O)OCc3ccccc3O2)C[C@H]1F (some centres not stated)", "Not met"],
  ["Cc1cccc2c1OP(=O)(OCC1C[C@H](F)C(n3cnc4c(O)ncnc43)O1)OC2 (some centres not stated)", "Met"],
  ["COc1ccc2c(c1)COP(=O)(OCC1C[C@@H](F)C(n3cnc4c(N)ncnc43)O1)O2 (some centres not stated)", "Not met"]
]}

====

METHOD NOTES: Partition coefficient (logP)
Assay type: physicochemical
CONDITION NOTES: octanol/water

{"columns": ["COMPOUND", "logP"],
 "data": [
  ["OCC1C[C@@H](F)C(n2cnc3c(O)ncnc32)O1 (some centres undefined)", -0.96],
  ["COc1ccc2c(c1)COP(=O)(OCC1C[C@H](F)C(n3cnc4c(N)ncnc43)O1)O2 (some centres undefined)", 1.04],
  ["Nc1ncnc2c1ncn2[C@@H]1OC(CO)C[C@H]1F (single isomer, unassigned)", -0.2],
  ["Cc1cccc2c1OP(=O)(OCC1C[C@H](F)C(n3cnc4c(O)ncnc43)O1)OC2 (some centres undefined)", 0.51],
  ["COc1ccc2c(c1)COP(=O)(OCC1C[C@@H](F)C(n3cnc4c(N)ncnc43)O1)O2 (some centres undefined)", 0.71],
  ["Nc1ncnc2c1ncn2[C@@H]1O[C@H](CO)C[C@@H]1F [LODENOSINE]", -0.16],
  ["Nc1ncnc2c1ncn2C1OC(COP2(=O)OCc3ccccc3O2)C[C@H]1F (some centres undefined)", 0.72],
  ["Nc1ncnc2c1ncn2C1OC(COP2(=O)OCc3ccccc3O2)C[C@@H]1F (some centres undefined)", 0.95],
  ["Cc1cccc2c1OP(=O)(OCC1C[C@@H](F)C(n3cnc4c(O)ncnc43)O1)OC2 (some centres undefined)", 0.24]
]}

====

Listed compounds paired with reported CC50
Test system: CCRF-CEM
METHOD NOTES: Cytotoxic concentration in Wild Type CEM cells
Assay type: functional
CONDITION NOTES: Homo sapiens
OBSERVATION TYPE: CC50

{"columns": ["COMPOUND", "OBSERVATION TYPE", "OBSERVED MEASUREMENT"],
 "data": [
  ["Nc1ncnc2c1ncn2[C@@H]1OC(CO)C[C@H]1F (single isomer, unassigned)", "CC50", "> 250 µM"],
  ["Nc1ncnc2c1ncn2[C@H]1CC[C@@H](CO)O1", "CC50", "> 250 µM"],
  ["Cc1cn([C@H]2C=C[C@@H](CO)O2)c(=O)[nH]c1=O", "CC50", "56 µM"],
  ["Nc1ncnc2c1ncn2[C@@H]1O[C@H](CO)C[C@@H]1F", "CC50", "> 250 µM"],
  ["COc1ccc2c(c1)COP(=O)(OCC1C[C@H](F)C(n3cnc4c(N)ncnc43)O1)O2 (stereo not given in full)", "CC50", "121 µM"],
  ["OCC1C[C@H](F)C(n2cnc3c(O)ncnc32)O1 (stereo not given in full)", "CC50", "> 250 µM"],
  ["Cc1cccc2c1OP(=O)(OCC1C[C@@H](F)C(n3cnc4c(O)ncnc43)O1)OC2 (stereo not given in full)", "CC50", "> 250 µM"],
  ["Nc1ncnc2c1ncn2C1OC(COP2(=O)OCc3ccccc3O2)C[C@H]1F (stereo not given in full)", "CC50", "> 250 µM"],
  ["Cc1cccc2c1OP(=O)(OCC1C[C@H](F)C(n3cnc4c(O)ncnc43)O1)OC2 (stereo not given in full)", "CC50", "> 250 µM"],
  ["COc1ccc2c(c1)COP(=O)(OCC1C[C@@H](F)C(n3cnc4c(N)ncnc43)O1)O2 (stereo not given in full)", "CC50", "> 250 µM"]
]}

====

Tested on: CCRF-CEM
METHOD NOTES: Antiviral activity evaluated as the ability to inhibit the replication of HIV-2 in human T-lymphocytic cells (CEM)
Type: functional, cell-based
Listed molecules paired with reported EC50

{"columns": ["MOLECULE", "EC50"],
 "data": [
  ["OCC1C[C@@H](F)C(n2cnc3c(O)ncnc32)O1 (stereo partly specified)", "> 250 µM"],
  ["COc1ccc2c(c1)COP(=O)(OCC1C[C@H](F)C(n3cnc4c(N)ncnc43)O1)O2 (stereo partly specified)", "5.67 µM"],
  ["Cc1cccc2c1OP(=O)(OCC1C[C@H](F)C(n3cnc4c(O)ncnc43)O1)OC2 (stereo partly specified)", "3.57 µM"],
  ["Nc1ncnc2c1ncn2C1OC(COP2(=O)OCc3ccccc3O2)C[C@H]1F (stereo partly specified)", "13 µM"],
  ["Nc1ncnc2c1ncn2[C@@H]1OC(CO)C[C@H]1F (single isomer, unassigned)", "> 250 µM"],
  ["OCC1C[C@H](F)C(n2cnc3c(O)ncnc32)O1 (stereo partly specified)", "30 µM"]
]}
